assay: in vitro; conditions: human, uninfected MT-4 cells
# if measured CC50 at 5 days < 20 µM: 1 (yes)  # else: 0 (no)

[[record]]
input_smiles = "CC1=NO[C@@]2(CC[C@H](C)N3C[C@H]2n2cc(C(=O)NCc4ccc(F)cc4F)c(=O)c(OCOC(=O)OCCN(C)C)c2C3=O)C1"
discrete_label = "1 (yes)"

[[record]]
input_smiles = "COC1=NO[C@@]2(CC[C@H](C)N3C[C@H]2n2cc(C(=O)NCc4ccc(F)cc4F)c(=O)c(OCOC(=O)OCCN(CC(=O)O)C(=O)OCOP(=O)(O)O)c2C3=O)C1"
discrete_label = "1 (yes)"

[[record]]
input_smiles = "CC1=NO[C@@]2(CC[C@H](C)N3C[C@H]2n2cc(C(=O)NCc4ccc(F)cc4F)c(=O)c(OCOC(=O)CCCOP(=O)(O)O)c2C3=O)C1"
discrete_label = "1 (yes)"

[[record]]
input_smiles = "CC[C@H](COP(=O)(O)O)OC(=O)OCOc1c2n(cc(C(=O)NCc3ccc(F)cc3F)c1=O)[C@@H]1CN(C2=O)[C@@H](C)CC[C@]12CC(C)=NO2"
discrete_label = "1 (yes)"

[[record]]
input_smiles = "COC1=NO[C@@]2(CC[C@H](C)N3C[C@H]2n2cc(C(=O)NCc4ccc(F)cc4F)c(=O)c(OCOC(=O)O[C@@H](C)[C@@H](C)OP(=O)(O)O)c2C3=O)C1"
discrete_label = "1 (yes)"

[[record]]
input_smiles = "COC1=NO[C@@]2(CC[C@H](C)N3C[C@H]2n2cc(C(=O)NCc4ccc(F)cc4F)c(=O)c(OCOC(=O)OCC(C)(C)COP(=O)(O)O)c2C3=O)C1"
discrete_label = "1 (yes)"

[[record]]
input_smiles = "CC1=NO[C@@]2(CC[C@H](C)N3C[C@H]2n2cc(C(=O)NCc4ccc(F)cc4F)c(=O)c(OCOC(=O)OC[C@H](OP(=O)(O)O)C(C)C)c2C3=O)C1"
discrete_label = "0 (no)"

[[record]]
input_smiles = "COC1=NO[C@@]2(CC[C@H](C)N3C[C@H]2n2cc(C(=O)NCc4ccc(F)cc4F)c(=O)c(OCOC(=O)O[C@H](C)[C@H](C)OP(=O)(O)O)c2C3=O)C1"
discrete_label = "0 (no)"

[[record]]
input_smiles = "CC1=NO[C@@]2(CC[C@H](C)N3C[C@H]2n2cc(C(=O)NCc4ccc(F)cc4F)c(=O)c(OCOC(=O)OCCOP(=O)(O)O)c2C3=O)C1"
discrete_label = "1 (yes)"

